Target: Sodium-dependent serotonin transporter (Homo sapiens, UniProt P31645)
Sequence (P31645 whole entry): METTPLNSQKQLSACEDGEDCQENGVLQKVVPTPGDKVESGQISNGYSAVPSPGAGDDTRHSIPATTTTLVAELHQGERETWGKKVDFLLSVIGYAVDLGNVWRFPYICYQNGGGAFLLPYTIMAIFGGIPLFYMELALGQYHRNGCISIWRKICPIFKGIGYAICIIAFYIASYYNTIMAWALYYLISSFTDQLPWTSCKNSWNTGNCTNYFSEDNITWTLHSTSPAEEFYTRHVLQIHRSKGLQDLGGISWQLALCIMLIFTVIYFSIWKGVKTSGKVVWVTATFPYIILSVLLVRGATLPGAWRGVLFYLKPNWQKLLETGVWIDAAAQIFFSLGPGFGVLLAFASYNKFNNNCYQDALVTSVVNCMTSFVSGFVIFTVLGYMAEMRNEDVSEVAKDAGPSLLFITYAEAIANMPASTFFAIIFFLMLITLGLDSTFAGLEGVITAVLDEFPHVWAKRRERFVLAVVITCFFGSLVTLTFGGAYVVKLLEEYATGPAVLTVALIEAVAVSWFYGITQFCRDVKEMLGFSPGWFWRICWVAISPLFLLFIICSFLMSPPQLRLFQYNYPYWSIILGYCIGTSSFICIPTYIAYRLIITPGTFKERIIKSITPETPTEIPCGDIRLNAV
Test: Displacement of [3H]citalopram from human SERT expressed in HEK293 cells
Type: cell-based
Exercise: for every item that follows, state its recorded pIC50.
Bear in mind: pIC50 is minus log10 of a mol/L concentration; give just that figure.

Give Sodium-dependent serotonin transporter (Homo sapiens, UniProt P31645) pIC50 for CN(C)[C@H]1CC=C(c2c[nH]c3ccc(C#N)cc23)CC1
9.14

API: value(readout= pIC50, system= Sodium-dependent serotonin transporter (Homo sapiens, UniProt P31645), query= CN1CC=C(c2c[nH]c3ccc(Br)cc23)CC1 )
6.68

Lab note: need pIC50 with Sodium-dependent serotonin transporter (Homo sapiens, UniProt P31645) for entry CN(C)[C@@H]1CC=C(c2c[nH]c3ccc(C#N)cc23)CC1 , please look it up.
8.96

Request: pIC50, test system Sodium-dependent serotonin transporter (Homo sapiens, UniProt P31645), entry COc1ccc2[nH]cc(C3=CCN(C)CC3)c2c1
6.14

State its pIC50 on Sodium-dependent serotonin transporter (Homo sapiens, UniProt P31645): CN(C)C1CC=C(c2c[nH]c3ccc(F)cc23)CC1 (stereo unspecified)
7.85

Report pIC50 for CN1CC=C(c2c[nH]c3ccc(Cl)cc23)CC1 tested on Sodium-dependent serotonin transporter (Homo sapiens, UniProt P31645).
6.62

---

Molecular target: Sodium-dependent dopamine transporter (Homo sapiens, UniProt Q01959)
Sequence (Q01959 whole entry): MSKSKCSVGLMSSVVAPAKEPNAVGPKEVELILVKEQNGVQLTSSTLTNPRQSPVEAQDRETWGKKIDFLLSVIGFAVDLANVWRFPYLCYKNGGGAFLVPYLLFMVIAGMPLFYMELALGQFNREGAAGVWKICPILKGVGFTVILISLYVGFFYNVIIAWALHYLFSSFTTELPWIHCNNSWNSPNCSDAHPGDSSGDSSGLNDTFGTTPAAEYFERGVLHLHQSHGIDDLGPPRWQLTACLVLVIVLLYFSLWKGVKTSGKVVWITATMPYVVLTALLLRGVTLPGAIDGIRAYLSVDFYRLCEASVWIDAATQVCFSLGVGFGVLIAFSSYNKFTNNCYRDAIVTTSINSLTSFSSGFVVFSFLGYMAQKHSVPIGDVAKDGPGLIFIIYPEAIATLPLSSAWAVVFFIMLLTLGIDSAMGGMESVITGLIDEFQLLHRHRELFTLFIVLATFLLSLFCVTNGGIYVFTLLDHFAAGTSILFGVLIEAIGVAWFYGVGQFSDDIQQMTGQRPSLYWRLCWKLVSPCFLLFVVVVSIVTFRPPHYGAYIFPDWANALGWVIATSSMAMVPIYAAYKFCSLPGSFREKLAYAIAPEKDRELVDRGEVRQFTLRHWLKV
Assay: Inhibition of human DAT at 1 uM
Hi there, I'd appreciate the recorded inhibition for every entry that follows.
Write the number in % without appending the unit.

# lookup: inhibition of CN(C)C1CC=C(c2c[nH]c3ccccc23)CC1 (stereo not drawn)
67

Consider the molecule CN(C)C1CC=C(c2c[nH]c3ccc(F)cc23)CC1 (stereo not drawn) and give its measured inhibition.
23

Record request: inhibition value, item CN1CC=C(c2c[nH]c3ccc(C#N)cc23)CC1
56

What inhibition value was documented for this molecule, CN(C)C1CC=C(c2c[nH]c3ccc(Cl)cc23)CC1 (stereo not drawn) ?
16

Fill in: inhibition of CN(C)C1CC=C(c2c[nH]c3ccc([N+](=O)[O-])cc23)CC1 (stereo not drawn) is ___
74

Given the molecule CN1CC=C(c2c[nH]c3ccc([N+](=O)[O-])cc23)CC1 , what is its reported inhibition?
73

Please look up its inhibition: CN(C)C1CC=C(c2c[nH]c3ccc(Br)cc23)CC1 (stereo not drawn)
95

Given the entry CN(C)C1CC=C(c2c[nH]c3ccc(C#N)cc23)CC1 (stereo not drawn) , report its measured inhibition.
71

---

Molecular target: Sodium-dependent serotonin transporter (Homo sapiens, UniProt P31645)
Assay: Displacement of [3H]citalopram from human SERT expressed in HEK293 cells
Format: cell-based
observable: log10 of IC50 (log10 of the value in nM)
A difference of one corresponds to tenfold IC50; all values are log10 with IC50 in nM.

What value of measured log10 of IC50 is listed for Cc1ccc2[nH]cc(C3=CCN(C)CC3)c2c1 ?
2.96

Reported log10 of IC50, molecule Cc1ccc2[nH]cc(C3=CCC(N(C)C)CC3)c2c1 (configuration not stated) : ____
2.89

GET /values?readout=log10 of IC50&item= CN1CC=C(c2c[nH]c3ccccc23)CC1
2.84

log10 of IC50 for CN(C)C1CC=C(c2c[nH]c3ccccc23)CC1 (configuration not stated) ?
0.49

What measured log10 of IC50 goes with CN1CC=C(c2c[nH]c3ccc([N+](=O)[O-])cc23)CC1 ?
1.60

GET /values?readout=log10 of IC50&item= CN(C)C1CC=C(c2c[nH]c3ccc(Cl)cc23)CC1 (configuration not stated)
1.28

Return reported log10 of IC50; argument: COc1ccc2[nH]cc(C3=CCC(N(C)C)CC3)c2c1 (configuration not stated)
2.18

Reported log10 of IC50 for CN1CC=C(c2c[nH]c3ccc(F)cc23)CC1 : what is it?
2.20

Entry CN1CC=C(c2c[nH]c3ccc(C#N)cc23)CC1 has what log10 of IC50?
1.28

Fill blank: measured log10 of IC50 of the molecule CN(C)C1CC=C(c2c[nH]c3ccc(Br)cc23)CC1 (configuration not stated) is ____.
0.72

Name the reported log10 of IC50 value associated with the molecule CN(C)C1CC=C(c2c[nH]c3ccc([N+](=O)[O-])cc23)CC1 (configuration not stated)
0.00

Entry under review: CN(C)C1CC=C(c2c[nH]c3ccc(C#N)cc23)CC1 (configuration not stated) . Reported log10 of IC50?
0.20
